- Tested on: releasing of lysozomal enzyme from the neutrocytes of rat
- METHOD_NOTES: Inhibitory effect against the releasing of lysozomal enzyme from the neutrocytes of rat
- Format: cell-based
- CONDITION_NOTES: rat neutrocytes 5×10^5 cells/ml; FMLP 10^-6 M + cytocharasin B 5 μg/ml; OD540
OBSERVED_PROPERTY: IC50 (µg/mL)

>>> print(df.to_string())
                                   molecule  quantitative_readout
0  COc1cccc(CNC(=O)[C@]2(Cc3ccccc3)NC(=O)[C@@H](CC(C)C)N(O)C2=O)c1 (relative stereo)                     3
1  COc1cccc(CNC(=O)[C@@]2(C)NC(=O)[C@H](CC(C)C)N(O)C2=O)c1 (racemic)                     2
2  CC(C)C[C@H]1C(=O)N[C@@H](Cc2cc(Cl)c(O)c(Cl)c2)C(=O)N1O                    30
3  CC(C)C[C@H]1C(=O)N[C@](Cc2ccccc2)(C(=O)Nc2nc3ccccc3s2)C(=O)N1O (racemic)                     3
